FYI, the data here is from PubChem BioAssay.

- Tested on: Noggin (protein binding on small-molecule microarray)
- procedure_summary: small molecules binding Noggin protein – biochemical, 635/667 nm fluorescence, primary screen (AID 1095);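 further: score merges 667 nm feature fluorescence with signal to noise over triplicate slides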
- condition_notes: 635 nm fluorescence, higher = more signal
Provide the reported composite z-score of each item.
# output: bare number, no unit

Ask: Which composite z-score reading was recorded for the compound O=C(NCC(O)CO)[C@@]1(Cc2ccccc2)N=C(c2ccc(OCCCO)cc2)O[C@H]1c1ccccc1 (stereo partly drawn) ?
Reply: 0.431

Ask: Which composite z-score reading was recorded for the compound `CCCCC(=C=CC[C@H](O)c1ccccc1OCCO)C[C@H](O)c1cc(Cl)cc(Cl)c1O` ?
Reply: 0.453

Ask: Which composite z-score reading was recorded for the compound `CCCNC(=O)[C@@]1(C)c2ccccc2C(=O)N(Cc2cc(F)cc(C(F)(F)F)c2)[C@H]1c1ccc(CO)cc1` ?
Reply: 0.0391

Ask: Which composite z-score reading was recorded for the compound CC(C)C(O)C1C=CC2C(=O)N(C)C(=O)C2N1N1CCCCC1 (stereo not drawn) ?
Reply: 0.315

Ask: Which composite z-score reading was recorded for the compound `COCC1=C([C@H](O)CCc2ccccc2)[C@H](CO)[C@@H]2C(=O)N(Cc3ccccc3)C(=O)[C@@H]2C1` ?
Reply: 0.49

Ask: Which composite z-score reading was recorded for the compound `C=CC[C@@]1(C(=O)OC)N=C(c2ccc(OCCCO)cc2)O[C@@H]1c1ccccc1CN=[N+]=[N-]` ?
Reply: 0.744

Ask: Which composite z-score reading was recorded for the compound `CCOC(=O)C[C@H]1[C@H](OC(=O)c2ccccc2-c2ccccc2)[C@@H](NC(=O)c2ccc(-c3ccccc3)cc2)c2cc(OCCCO)ccc2N1C(=O)c1ccccc1` ?
Reply: 0.603

Ask: Which composite z-score reading was recorded for the compound `COc1ccc([Si](C)(C)[C@H]2[C@H](CCO)O[C@@]3(C(=O)N(Cc4cccc(N5C(=O)c6cccc7cccc5c67)c4)c4ccccc43)[C@@H]2C)cc1` ?
Reply: 0.492

* * *

- procedure_summary: optical density change of DRC41 E. coli – strain DRC41, OD650, 24 h, E. coli filamentation project, primary screen (AID 1093);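 further: MC1000 strain lacking acrAB efflux and sulA so SOS filamentation is blocked; test concentration not given here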
- condition_notes: E. coli DRC41 growth, higher = more signal, called active from +8 up or from −8 down
Give y when the value for z-score is at least 0.05. Give n when it is less.

Ask: Form field: z-score at least 0.05? Entry: `O=C1[C@H]2C=C(Br)[C@H](C[C@@H]2OCCOCCO)[C@@]12CO2`
Reply: n

Ask: Form field: z-score at least 0.05? Entry: Cn1c2c(c3ccccc31)C(=O)C1NC2C=CC1(C)C(=O)OCc1ccccc1 (stereo not given)
Reply: n

Ask: Form field: z-score at least 0.05? Entry: `C=C[C@H](C)[C@H](OC(=O)Nc1ccc(OC)cc1)c1ccc(O)c2ccccc12`
Reply: y

Ask: Form field: z-score at least 0.05? Entry: CCCCCCCCCCC(O)C1C=CC2C(=O)N(c3ccccc3)C(=O)C2N1Nc1ccc([N+](=O)[O-])cc1 (stereo not given)
Reply: n

Ask: Form field: z-score at least 0.05? Entry: C=CCC(OC(C)=O)[C@@H]1[C@@H](N(Cc2ccc(-c3ccccc3)cc2)C(=O)c2ccc(C)cc2)c2cc(OCCCO)ccc2N1C(=O)c1ccc2ccccc2n1 (stereo not given in full)
Reply: y

Ask: Form field: z-score at least 0.05? Entry: `[N-]=[N+]=Nc1ccccc1C[C@]1(C(=O)N2CCCCC2)N=C(c2ccc(OCCCO)cc2)O[C@H]1c1ccccc1N=[N+]=[N-]`
Reply: n

Ask: Form field: z-score at least 0.05? Entry: `Cc1ccc(N2C(=O)c3ccccc3[C@@H](C(=O)NC(C)C)[C@@H]2c2ccc(CO)cc2)nc1`
Reply: n

Ask: Form field: z-score at least 0.05? Entry: `[N-]=[N+]=NCc1ccccc1C[C@]1(C(=O)NCCN2CCOCC2)N=C(c2ccc(OCCCO)cc2)O[C@H]1c1ccccc1CN=[N+]=[N-]`
Reply: y

Ask: Form field: z-score at least 0.05? Entry: `Cc1ccc(N2C(=O)c3ccccc3[C@@H](C(=O)NCC(C)C)[C@@H]2c2ccc(CO)cc2)nc1`
Reply: y

Ask: Form field: z-score at least 0.05? Entry: `COCCOC(=O)N1C(=O)[C@@]2(c3ccccc31)[C@H](c1ccc(O)cc1)N1[C@H](c3ccccc3)[C@H](c3ccccc3)OC(=O)[C@H]1[C@@H]2C(N)=O`
Reply: n

Ask: Form field: z-score at least 0.05? Entry: CN1C(=O)C2C=CC(C(O)C=Cc3ccc([N+](=O)[O-])cc3)N(N3CCCCC3)C2C1=O (stereo not given)
Reply: n

Ask: Form field: z-score at least 0.05? Entry: `NC(=O)NCC#Cc1ccc2c(c1)[C@]1(C(=O)N2)[C@H](c2ccc(O)cc2)N2[C@H](c3ccccc3)[C@H](c3ccccc3)OC(=O)[C@H]2[C@@H]1C(=O)N1CCN(c2ncccn2)CC1`
Reply: y

Ask: Form field: z-score at least 0.05? Entry: `C=CCOC(=O)[C@@H]1[C@H]2C(=O)O[C@H](c3ccccc3)[C@H](c3ccccc3)N2[C@H](c2ccc(OCCOC(=O)[C@H]3C[C@H]4C(=O)N[C@@H](Cc5ccccc5)C(=O)N4[C@H]3c3ccc(O)cc3)cc2)[C@@]12C(=O)Nc1ccc(I)cc12`
Reply: n

Ask: Form field: z-score at least 0.05? Entry: `CC(=O)NCCCC[C@@H]1NC(=O)[C@@H]2C[C@H](C(=O)NCCCCCC[N+](C)(C)C)[C@H](c3cccc(OCCO)c3)N2C1=O`
Reply: n

Ask: Form field: z-score at least 0.05? Entry: `O=C1O[C@H](c2ccccc2)[C@H](c2ccccc2)N2[C@H]1[C@@H](C(=O)NC[C@H](O)c1ccccc1)[C@]1(C(=O)Nc3ccc(C#CC4(O)CCCCCC4)cc31)[C@H]2c1ccccc1OCCO`
Reply: n

Ask: Form field: z-score at least 0.05? Entry: CC(C)C(O)C1C=CC2C(=O)N(C)C(=O)C2N1N1CCCCC1 (stereo not given)
Reply: n

Ask: Form field: z-score at least 0.05? Entry: `Cc1ccc(F)cc1S(=O)(=O)N[C@@H]1CCN(Cc2ccc(C(F)(F)F)cc2)C1`
Reply: n

Ask: Form field: z-score at least 0.05? Entry: `CCCC[C@H]1C[C@@H]1[C@@H]1N(P(=O)(c2ccccc2)c2ccccc2)[C@](CO)(c2ccccc2)CC12CC2`
Reply: n

Ask: Form field: z-score at least 0.05? Entry: CCCCN1CC=CC23O[C@@H]4C=CCCOC(=O)C4[C@H]2C(=O)N(CCCO)[C@@H]3C1=O (stereo not given in full)
Reply: y

Ask: Form field: z-score at least 0.05? Entry: CC(c1ccccc1)C(O)C1C=CC2C(=O)N(Cc3ccccc3)C(=O)C2N1n1cnnc1 (stereo not given)
Reply: n

Ask: Form field: z-score at least 0.05? Entry: O=C1OCC=C[C@H]2OC34C=CCN(CCN5CCOCC5)C(=O)[C@H]3N(CCCCCCO)C(=O)[C@@H]4[C@@H]12 (stereo not given in full)
Reply: n

Ask: Form field: z-score at least 0.05? Entry: `Cc1ccc(S[C@]2(C(=O)NCC(C)C)CC(=O)N(Cc3ccccc3)[C@@H]2c2ccc(CO)cc2)cc1`
Reply: n

Ask: Form field: z-score at least 0.05? Entry: `COc1cc(CO)cc(I)c1O[C@H]1C=C(C(=O)NCCO)C[C@@H](N(CCc2cccc(F)c2)C(=O)CCC2CCCC2)[C@@H]1O`
Reply: y

Ask: Form field: z-score at least 0.05? Entry: `Cc1ccc(S[C@]2(C(=O)NCCCN(C)C)CC(=O)N(Cc3ccccc3)[C@@H]2c2ccc(CO)cc2)cc1`
Reply: n

Ask: Form field: z-score at least 0.05? Entry: `[N-]=[N+]=Nc1ccccc1[C@@H]1OC(c2ccc(OCCCO)cc2)=N[C@]1(CCS(=O)(=O)c1ccccc1)C(=O)N1CCCCC1`
Reply: y

Ask: Form field: z-score at least 0.05? Entry: `CC(C)N1C(=O)c2ccccc2[C@](C)(C(=O)NC2CC2)[C@@H]1c1ccc(CO)cc1`
Reply: y

Ask: Form field: z-score at least 0.05? Entry: `CN(C)CCCCNC(=O)[C@@H]1C[C@@H]2C(=O)N[C@@H](CCCCN)C(=O)N2[C@@H]1c1cccc(OCCO)c1`
Reply: n

Ask: Form field: z-score at least 0.05? Entry: `O=C(N1CCCCC1)[C@]1(CCS(=O)(=O)c2ccccc2)N=C(c2ccc(OCCCO)cc2)O[C@@H]1c1ccccc1`
Reply: n

Ask: Form field: z-score at least 0.05? Entry: `CN(C)CCCC[C@@H]1NC(=O)[C@@H]2C[C@H](C(=O)NCCCCCN)[C@H](c3ccc(O)cc3)N2C1=O`
Reply: y

Ask: Form field: z-score at least 0.05? Entry: `C[N+](C)(C)CCCC[C@@H]1NC(=O)[C@H]2C[C@@H](C(=O)O)[C@@H](c3cccc(OCCO)c3)N2C1=O`
Reply: n
